Target: melanocortin 1 receptor (human, UniProt Q01726 1-317)
Sequence (Q01726 whole entry): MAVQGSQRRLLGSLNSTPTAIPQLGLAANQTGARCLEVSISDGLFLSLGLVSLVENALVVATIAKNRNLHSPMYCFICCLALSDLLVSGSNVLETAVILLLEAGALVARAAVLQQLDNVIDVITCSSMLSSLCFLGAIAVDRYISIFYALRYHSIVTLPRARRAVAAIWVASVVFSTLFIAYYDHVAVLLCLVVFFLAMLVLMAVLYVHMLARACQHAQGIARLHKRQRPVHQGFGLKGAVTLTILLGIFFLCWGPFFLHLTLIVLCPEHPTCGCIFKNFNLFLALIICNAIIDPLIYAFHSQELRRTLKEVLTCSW
Experiment: cell-based or functional assay
Bridges are numbered along the chain shown (N, C = ends). [ ]: non-standard residue; d: D form. Pen = CC(C)(S)[C@H](N)C(=O)O; hCys = N[C@@H](CCS)C(=O)O; Dap = NC[C@H](N)C(=O)O
MEASURED ATTRIBUTE: EC-50 (nM), cAMP accumulation
Answer with a number only, understood to be in nM.

Input: I would be grateful if you could share the reported EC-50 (nM), cAMP accumulation for Ac-R[hCys]S[dF]RW[Pen]-NH2 (disulfide 2-7; SMILES CC(=O)N[C@@H](CCCNC(=N)N)C(=O)N[C@H]1CCSSC(C)(C)[C@@H](C(N)=O)NC(=O)[C@H](Cc2c[nH]c3ccccc23)NC(=O)[C@H](CCCNC(=N)N)NC(=O)[C@@H](Cc2ccccc2)NC(=O)[C@H](CO)NC1=O) [001556C, Ac-Arg-(hCys-Ser-D-Phe-Arg-Trp-Pen)-NH2] .
Output: 229

Input: Form field: reported EC-50 (nM), cAMP accumulation of Ac-R[hCys]N[dF]RW[Pen]-NH2 (disulfide 2-7) [001554C, Ac-Arg-(hCys-Asn-D-Phe-Arg-Trp-Pen)-NH2]
Output: 235

Input: # input binder: Ac-R[hCys]T[dF]RW[Pen]-NH2 (disulfide 2-7; SMILES CC(=O)N[C@@H](CCCNC(=N)N)C(=O)N[C@H]1CCSSC(C)(C)[C@@H](C(N)=O)NC(=O)[C@H](Cc2c[nH]c3ccccc23)NC(=O)[C@H](CCCNC(=N)N)NC(=O)[C@@H](Cc2ccccc2)NC(=O)[C@H]([C@@H](C)O)NC1=O) [001574C, Ac-Arg-(hCys-Thr-D-Phe-Arg-Trp-Pen)-NH2] ; wanted: its EC-50 (nM), cAMP accumulation
Output: 516

Input: Fill in the blank: the reported EC-50 (nM), cAMP accumulation of Ac-REQ[dF]RW[Dap]-NH2 (lactam 2-7; SMILES CC(=O)N[C@@H](CCCNC(=N)N)C(=O)N[C@H]1CCC(=O)NC[C@@H](C(N)=O)NC(=O)[C@H](Cc2c[nH]c3ccccc23)NC(=O)[C@H](CCCNC(=N)N)NC(=O)[C@@H](Cc2ccccc2)NC(=O)[C@H](CCC(N)=O)NC1=O) [001576C, Ac-Arg-(Glu-Gln-D-Phe-Arg-Trp-Dpr)-NH2] is ____.
Output: 23.6

Input: I am curious: what EC-50 (nM), cAMP accumulation value has been reported for Ac-R[hCys]Q[dF]RW[Pen]-NH2 (disulfide 2-7) [001555C, Ac-Arg-(hCys-Gln-D-Phe-Arg-Trp-Pen)-NH2] ?
Output: 47.5
